Assay: Whole blood MIS and Ro-05-9963 by HPLC after MIS in control, sham-operated and kidney-ligated mice
Conditions: BALB/c, mouse, in vivo, 5 mmol/kg, plasma half-life, bilateral kidney ligation before injection
readout-type: half-life

Item under review: COCC(O)Cn1ccnc1[N+](=O)[O-] (stereo not shown) . Reported half-life?
600 to 660 min

###

Experiment: Whole blood MIS and Ro-05-9963 by HPLC after MIS in control, sham-operated and kidney-ligated mice
Settings: BALB/c, mouse, in vivo, 5 mmol/kg, plasma half-life, normal mice
Procedure: Several groups are now pursuing such a goal (Adams, 1977; Brown et al., 1978; Wardman, 1977). […] Specifically the two ques- tions were: (a) How much does the plasma half-life affect the peak plasma level? (b) How much does the plasma half-life affect the tumour/plasma ratio of drug concentrations? […] Plasma (or whole blood) and tumour levels of 2-nitroimidazoles were determined in different ways in the two laboratories rep- resented. […]
readout-type: half-life

Item under review: COCC(O)Cn1ccnc1[N+](=O)[O-] (stereo not shown) . Reported half-life?
~2 h

These measurements were taken from paper PMC2009863.
